TARGET_SYSTEM: T1, nSR100 (Mus musculus, UniProt Q8BKA3)
T1 construct: host or cells: mouse N2A cells
T1 sequence (Q8BKA3 1-608): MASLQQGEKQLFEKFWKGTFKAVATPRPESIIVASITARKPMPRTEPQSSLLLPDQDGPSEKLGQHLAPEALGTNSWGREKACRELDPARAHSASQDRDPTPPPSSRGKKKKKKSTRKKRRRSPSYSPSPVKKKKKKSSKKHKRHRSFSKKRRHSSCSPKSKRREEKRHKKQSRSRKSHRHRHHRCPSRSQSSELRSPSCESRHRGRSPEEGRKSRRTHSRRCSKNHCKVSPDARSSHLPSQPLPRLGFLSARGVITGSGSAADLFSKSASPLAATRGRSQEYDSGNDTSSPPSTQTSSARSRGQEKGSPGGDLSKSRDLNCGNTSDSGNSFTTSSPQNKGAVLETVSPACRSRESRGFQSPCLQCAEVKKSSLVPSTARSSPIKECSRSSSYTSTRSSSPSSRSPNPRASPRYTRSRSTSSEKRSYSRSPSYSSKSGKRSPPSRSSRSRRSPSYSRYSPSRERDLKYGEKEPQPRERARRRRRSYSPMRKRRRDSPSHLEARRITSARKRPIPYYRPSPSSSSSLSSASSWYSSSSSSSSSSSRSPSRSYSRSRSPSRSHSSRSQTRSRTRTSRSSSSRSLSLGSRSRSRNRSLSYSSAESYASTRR
EXPERIMENT_NOTES: AP-MS nSR100 interaction partners from mouse N2A cells (Table 5)
Format: binding
CONDITION_CONTEXT: bait Srrm4, biological replicate 1 (first number of the cell), AP-MS
Below, each entry is listed with its recorded Spectra (number of spectra for the prey in the purification of the bait).
A bare number is all that is needed in reply.

- MOLECULE: "Fam76b (protein, UniProt Q80XP8 2-339, looked up) Protein FAM76B: AASALYACTKCTQRYPFEELSQGQQLCKECRIAHPIVKCTYCRSEFQQESKTNTICKKCAQNVKQFGTPKPCQYCNIIAAFIGTKCQRCTNSEKKYGAPQTCEQCKQQCAFDRKEEGRRKVDGKLLCWLCTLSYKRVLQKTKEQRKSLGSSHSNSSSSSLTEKDQHHSKHHHHHHHHHHRHSSGHHKVSSLSPEQEQGLWKQSHKSSAAIQNETPKKKPKLESKPSNGDSSSINQSADSGGTDNFVLISQLKEEVMSLKRLLQQRDQTILEKDKKLTELKADFQYQESNLRTKMNSMEKAHKETVEQLQAKNRELLKQVAALSKGKKFDKSGSVLTSP"
  READOUT_VALUE: 2

Problem: Need Spectra (number of spectra for the prey in the purification of the bait), item Ywhaq (protein, UniProt P68254 1-245, looked up) 14-3-3 protein theta: MEKTELIQKAKLAEQAERYDDMATCMKAVTEQGAELSNEERNLLSVAYKNVVGGRRSAWRVISSIEQKTDTSDKKLQLIKDYREKVESELRSICTTVLELLDKYLIANATNPESKVFYLKMKGDYFRYLAEVACGDDRKQTIENSQGAYQEAFDISKKEMQPTHPIRLGLALNFSVFYYEILNNPELACTLAKTAFDEAIAELDTLNEDSYKDSTLIMQLLRDNLTLWTSDSAGEECDAAEGAEN
Result: 15
